# TEST TARGET: full length human recombinant glucocorticoid receptor (Homo sapiens, UniProt P04150)
# Construct: partially purified full length human recombinant glucocorticoid receptor; purchased Panvera/Invitrogen PV4302
# METHOD DESCRIPTION: Glucocorticoid Receptor Binding Assay (fluorescence polarization competitor assay, Fluormone GS Far Red tracer)
MEASUREMENT LABEL: Ki (nM)

(1) C[C@H](c1ccc(Oc2ccc(C(=O)O)cc2)cc1Cl)[C@@](O)(c1ccc(=O)n(C)c1)C(F)(F)F (stereo in doubt) [Example 152]
(2) COC(=O)c1ccc(Oc2ccc([C@H](C)[C@](O)(c3cc(C)c(=O)n(C)c3)C(F)(F)F)c(Cl)c2)cc1Cl (stereo in doubt) [Example 207]
(Q) Lab log: flag the item ( 1 or 2 ) with the smaller Ki figure. Label of pick, please.
(A) 2

###

# TEST TARGET: full length human recombinant glucocorticoid receptor (Homo sapiens, UniProt P04150)
# Construct: partially purified full length human recombinant glucocorticoid receptor; purchased Panvera/Invitrogen PV4302
# METHOD DESCRIPTION: Glucocorticoid Receptor Binding Assay (fluorescence polarization competitor assay, Fluormone GS Far Red tracer)
pKi: −log10 of the molar value.
MEASUREMENT LABEL: pKi

Field: example entries. Status: answers known.
(Q) Entry under review: COC(=O)c1ccc(Oc2ccc([C@H](C)[C@](O)(c3cc(C)c(=O)n(C)c3)C(F)(F)F)c(Cl)c2)cc1F (stereo in doubt) . Reported pKi?
(A) 9.10

(Q) Also CC(c1ccc(Nc2ccc(C(=O)O)cc2)cc1Cl)C(O)(c1ccnc(Cl)c1)C(F)(F)F (centres unmarked) , if possible.
(A) 7.86

(Q) Same thing, different molecule: Cc1cc(C(O)(C(C)c2ccc(OCc3cc(C(=O)O)ccn3)cc2Cl)C(F)(F)F)ccn1 (centres unmarked)
(A) 7.46

(Q) Another: CC(c1ccc(Oc2ccc(C(=O)O)cn2)cc1Cl)C(O)(c1ccnc(Cl)c1)C(F)(F)F (centres unmarked)
(A) 7.69

(Q) Next record, please: CC(c1ccc(Oc2ccc(Cl)c(C(=O)O)c2)cc1Cl)C(O)(c1ccnc(Cl)c1)C(F)(F)F (centres unmarked)
(A) 8.35

(Q) Likewise for COC(=O)c1cnc(Oc2ccc(C(C)C(O)(c3ccnc(Cl)c3)C(F)(F)F)c(Cl)c2)cn1 (centres unmarked) ?
(A) 7.62

(Q) Same question, Cc1cc([C@](O)([C@H](C)c2ccc(Oc3ncc(C(=O)O)cc3Cl)cc2Cl)C(F)(F)F)sc1C#N (stereo in doubt) this time
(A) 8.89

(Q) Now the same for CC(c1ccc(NS(=O)(=O)c2ccc(C(=O)O)cc2)cc1Cl)C(O)(c1ccnc(Cl)c1)C(F)(F)F (centres unmarked)
(A) 6.75

(Q) Same thing, different molecule: Cc1cc([C@@](O)([C@@H](C)c2ccc(Oc3ccc(C(=O)O)cc3F)cc2Cl)C(F)(F)F)cn(C)c1=O (relative stereo)
(A) 9.70

(Q) Also need C[C@H](c1ccc(Oc2ccc(C(=O)O)cc2)c(Cl)c1Cl)[C@@](O)(c1ccc(=O)n(C)c1)C(F)(F)F (stereo in doubt) , thanks.
(A) 8.47

(I) Cc1cc([C@@](O)([C@@H](C)c2ccc(Oc3ccc(F)c(C(=O)O)c3)cc2Cl)C(F)(F)F)cn(C)c1=O (relative stereo)
(II) C[C@@H](c1ccc(-c2ccc(CC(=O)O)cc2)cc1Cl)[C@](O)(c1ccc(=O)[nH]c1)C(F)(F)F (relative stereo)
(III) C[C@H](c1ccc(Oc2ccc(C(=O)O)c(F)c2)c(Cl)c1Cl)[C@@](O)(c1ccc(=O)n(C)c1)C(F)(F)F (stereo in doubt)
(Q) Rank descending by pKi. In your reply, arrange the labels in the requested order.
(A) I, III, II
(I: 9.40, III: 8.64, II: 6.38)

(P) Cc1cc([C@](O)([C@H](C)c2ccc(OCc3cnn(CC(=O)O)c3)cc2Cl)C(F)(F)F)ccn1 (stereo in doubt)
(Q) COC(=O)c1ccc(COc2ccc(C(C)C(O)(c3ccnc(C)c3)C(F)(F)F)c(Cl)c2)c(OC)c1 (centres unmarked)
(Q) Which gives the smaller pKi number: P or Q ? Indicate which entry you chose by stating its label.
(A) P

###

# TEST TARGET: full length human recombinant glucocorticoid receptor (Homo sapiens, UniProt P04150)
# Construct: partially purified full length human recombinant glucocorticoid receptor; purchased Panvera/Invitrogen PV4302
# METHOD DESCRIPTION: Glucocorticoid Receptor Binding Assay (fluorescence polarization competitor assay, Fluormone GS Far Red tracer)
MEASUREMENT LABEL: Ki (nM)

(Q) Please state recorded Ki (tested on full length human recombinant glucocorticoid receptor (Homo sapiens, UniProt P04150)) of C[C@@H](c1ccc(-c2ccc(Cl)c(C(=O)O)c2)cc1Cl)[C@](O)(c1ccc(=O)n(C)c1)C(F)(F)F (stereo in doubt)
(A) 49.7

(1) Cc1cc(C(O)(C(C)c2ccc(Oc3ccc(C(=O)O)nn3)cc2Cl)C(F)(F)F)ccn1 (centres unmarked)
(2) Cc1nc(Oc2ccc([C@H](C)[C@](O)(c3cc(C)c(=O)n(C)c3)C(F)(F)F)c(Cl)c2)ccc1C(=O)O (stereo in doubt)
(Q) Parameter metric = Ki. Return the lower-valued option from 1 and 2 . Refer to your chosen entry by its label in the reply.
(A) 2
(2: 3.6 nM, 1: 361 nM)

(A) C[C@@H](c1ccc(Oc2cc(C(F)(F)F)c(C(=O)O)cn2)cc1Cl)[C@](O)(c1cc(Cl)c(=O)n(C)c1)C(F)(F)F (stereo in doubt)
(B) C[C@H](c1ccc(COc2ccc(C(=O)O)nn2)cc1Cl)[C@@](O)(c1ccnc(Cl)c1)C(F)(F)F (stereo in doubt)
(C) COC(=O)C1(c2ccc(COc3ccc([C@H](C)[C@](O)(c4cnc5ccccc5c4)C(F)(F)F)c(Cl)c3)cc2)CC1 (stereo in doubt)
(D) Cc1cc(C(=O)O)cnc1Oc1ccc([C@H](C)[C@](O)(c2cc(C)c(=O)n(C)c2)C(F)(F)F)c(Cl)c1 (relative stereo)
(Q) Which order do these items take when sorted by rising Ki? List them. Ranked list of labels, please, in the requested order.
(A) D, A, C, B
(D: 1.1 nM, A: 3.8 nM, C: 6.6 nM, B: 34.3 nM)

###

# TEST TARGET: full length human recombinant glucocorticoid receptor (Homo sapiens, UniProt P04150)
# Construct: partially purified full length human recombinant glucocorticoid receptor; purchased Panvera/Invitrogen PV4302
# Sequence (P04150 1-777): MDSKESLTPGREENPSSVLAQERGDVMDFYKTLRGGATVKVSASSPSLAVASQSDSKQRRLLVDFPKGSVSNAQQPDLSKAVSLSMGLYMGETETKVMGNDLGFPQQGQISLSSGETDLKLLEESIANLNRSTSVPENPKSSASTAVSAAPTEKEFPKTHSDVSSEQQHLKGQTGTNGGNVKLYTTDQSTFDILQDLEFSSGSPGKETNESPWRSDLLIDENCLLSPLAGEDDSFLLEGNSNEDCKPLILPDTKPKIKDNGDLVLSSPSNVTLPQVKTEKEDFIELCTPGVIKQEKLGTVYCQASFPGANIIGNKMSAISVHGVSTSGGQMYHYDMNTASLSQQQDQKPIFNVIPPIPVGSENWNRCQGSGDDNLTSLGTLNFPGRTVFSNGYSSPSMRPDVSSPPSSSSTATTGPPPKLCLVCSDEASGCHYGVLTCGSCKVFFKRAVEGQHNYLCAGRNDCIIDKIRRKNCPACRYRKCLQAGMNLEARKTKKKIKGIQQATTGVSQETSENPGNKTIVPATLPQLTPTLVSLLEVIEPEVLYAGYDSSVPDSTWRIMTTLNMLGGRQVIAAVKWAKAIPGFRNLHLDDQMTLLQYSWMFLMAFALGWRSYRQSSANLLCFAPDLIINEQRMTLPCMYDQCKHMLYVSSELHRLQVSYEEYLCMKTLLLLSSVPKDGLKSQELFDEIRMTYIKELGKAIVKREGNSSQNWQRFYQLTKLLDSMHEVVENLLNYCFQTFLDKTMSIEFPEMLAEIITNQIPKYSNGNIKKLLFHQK
# METHOD DESCRIPTION: Glucocorticoid Receptor Binding Assay (fluorescence polarization competitor assay, Fluormone GS Far Red tracer)
pKi: −log10 of the molar value.
MEASUREMENT LABEL: pKi

(1) C[C@H](c1ccc(Oc2ccc(C(=O)O)c(C(F)(F)F)c2)cc1Cl)[C@@](O)(c1ccc(=O)n(C)c1)C(F)(F)F (stereo in doubt) [Example 220]
(2) COC(=O)c1ccc(COc2ccc([C@@H](C)[C@@](O)(c3ccnc(Cl)c3)C(F)(F)F)c(Cl)c2)c(OC)c1 (relative stereo) [Example 21]
(Q) Lowest pKi? choose 1 or 2 Identify your pick by its label.
(A) 2

###

# TEST TARGET: full length human recombinant glucocorticoid receptor (Homo sapiens, UniProt P04150)
# Construct: partially purified full length human recombinant glucocorticoid receptor; purchased Panvera/Invitrogen PV4302
# METHOD DESCRIPTION: Glucocorticoid Receptor Binding Assay (fluorescence polarization competitor assay, Fluormone GS Far Red tracer)
MEASUREMENT LABEL: Ki (nM)

(I) C[C@H](c1ccc(C(=O)Nc2ccn(CC(=O)O)n2)cc1Cl)[C@@](O)(c1ccnc(Cl)c1)C(F)(F)F (stereo in doubt) [Example 35]
(II) COC(=O)c1ccc(-c2ccc([C@@H](C)[C@@](O)(c3ccnc(Cl)c3)C(F)(F)F)c(Cl)c2)cc1 (stereo in doubt) [Example 49]
(III) Cc1cnc(C(O)(C(C)c2ccc(OCc3cccc(C(=O)O)c3)cc2Cl)C(F)(F)F)cn1 (stereo not drawn) [Example 4]
(Q) Order by Ki, smallest first, the items presented above. Please list each label once, in the requested order.
(A) II, III, I
